B1: STK38L (parent)
chain: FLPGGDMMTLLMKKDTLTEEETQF

variants of: B1; test: protein stability index of a GFP-peptide fusion (GPS, HEK-293T) (PSI 1-6); higher = more stable; settings: c terminus: a fixed tail appended;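 further: lentivirally expressed fusions sorted by FACS into six bins by GFP to DsRed ratio, PSI derived from sequencing read proportions per bin multiplied by bin number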
Entries and their protein stability index values follow.
Answer with a bare number; do not write a unit.

As a guide, the following entries are already answered.
F24H : 2.44
G5V : 2.79

# input for lookup
stdin: Answer with the recorded protein stability index for the variant listed here: D6F
stdout: 1.96
